So I've got a bunch of binders here, and I need their hGLP1R cAMP EC50 ratio values.
- Assay target: human GLP-1 receptor (GLP-1R) (human, UniProt P43220 24-463)
- Test: cell-based or functional assay
Numbered stars: 1 amine (or outer) side, 2 acyl side, 3 side chain; on linkers, the order of the positions; unused ones are H or OH. Square brackets hold non-standard residues; d marks the D form. Side chains are listed from the residue outwards. Ends that are not written are not given here. * marks the point of attachment. C20 diacid = O=C(O)CCCCCCCCCCCCCCCCCCC(=O)*; C18 diacid = O=C(O)CCCCCCCCCCCCCCCCC(=O)*; αMePhe(2-F) = C[C@](N)(Cc1ccccc1F)C(=O)O; γGlu = O=C(O)[C@H](CCC(=O)[*:2])N[*:1]; Desaminohistidyl = O=C(CCc1c[nH]cn1)*; Desaminotyrosyl = O=C(CCc1ccc(O)cc1)*; αMeF = C[C@](N)(Cc1ccccc1)C(=O)O; αMeP = C[C@@]1(C(=O)O)CCCN1; AEEA = NCCOCCOCC(=O)O; Aib = CC(C)(N)C(=O)O
Number only, please.

[ask] Which hGLP1R cAMP EC50 ratio is reported for this binder? [Desaminotyrosyl][Aib]EGT[αMePhe(2-F)]TSDYSIXLDEK([AEEA-AEEA-γGlu-C20 diacid])AQ[Aib]EFIEYLIEGGPSSGAPPPS-NH2 (not fully specified (residue 13); printed as DesTyr-Aib-EGT-αMeF(2F)-TSDYSI-αMeF-LDEK((2-[2-(2-Amino-ethoxy)-ethoxy]-acetyl)2-(γ-Glu)-CO-(CH2)18-CO2H)AQ-Aib-EFIEYLIEGGPSSGAPPPS-NH2) [Example 134]
[reply] 0.942

[ask] Field entry: YXEGTXTSDXSILLDKKAQXAFIEYLIEGGPSSGAPPPS (Y-Aib-EGT-αMeF-TSD-3Pal-SILLDKK((2-[2-(2-Amino-ethoxy)-ethoxy]-acetyl)2-(γ-Glu)-CO-(CH2)18-CO2H)AQ-Aib-AFIEYLIEGGPSSGAPPPS-NH2) [Example 132]
[reply] 0.255

[ask] Field entry: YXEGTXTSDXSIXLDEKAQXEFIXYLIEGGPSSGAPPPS (Y-Aib-EGT-αMeF(2F)-TSD-αMeY-SI-αMeF-LDEK((2-[2-(2-Amino-ethoxy)-ethoxy]-acetyl)2-(γ-Glu)-CO-(CH2)18-CO2H)AQ-Aib-EFI-(D-Glu)-YLIEGGPSSGAPPPS-NH2) [Example 186]
[reply] 0.572

[ask] Field entry: Y[Aib]EGT[αMeF]TSDYSIXLDKK([AEEA-AEEA-γGlu-C20 diacid])AQ[Aib]AFIEYLIEAGPSSGAPPPS-NH2 (not fully specified (residue 13); printed as Y-Aib-EGT-αMeF-TSDYSI-αMeF-LDKK((2-[2-(2-Amino-ethoxy)-ethoxy]-acetyl)2-(γ-Glu)-CO-(CH2)18-CO2H)AQ-Aib-AFIEYLIEAGPSSGAPPPS-NH2) [Example 126]
[reply] 0.869

[ask] Field entry: YXEGTXTSDASIXLDEKAQXEFIXYLIEGGPSSGAPPPS (Y-Aib-EGT-αMeF(2F)-TSDASI-αMeF-LDEK((2-[2-(2-Amino-ethoxy)-ethoxy]-acetyl)2-(γ-Glu)-CO-(CH2)18-CO2H)AQ-Aib-EFI-(D-Glu)-YLIEGGPSSGAPPPS-NH2) [Example 192]
[reply] 1.73

[ask] Field entry: [Desaminotyrosyl]AEGTFTSDYSILLDEK([AEEA-AEEA-γGlu-C20 diacid])AQQAFIEYLIEGGPSSGAPPPS-NH2 [Example 200]
[reply] 0.573

[ask] Field entry: Y[Aib]EGT[αMeF]TSDYSIXLDKKAQ[Aib][Aib]FIEYLIEGGPSSGAPPPS-NH2 (not fully specified (residues 13, 17); printed as Y-Aib-EGT-αMeF-TSDYSI-αMeF-LDKK((2-[2-(2-Amino-ethoxy)-ethoxy]-acetyl)2-(γ-Glu)-CO-(CH2)18-CO2H)AQ-Aib-Aib-FIEYLIEGGPSSGAPPPS-NH2) [Example 143]
[reply] 0.714

[ask] Field entry: Y[Aib]EGT[αMeF]TSDYSIXLDKKAQH[Aib]FIEYLIEGGPSSGAPPPS-NH2 (not fully specified (residues 13, 17); printed as Y-Aib-EGT-αMeF-TSDYSI-αMeF-LDKK((2-[2-(2-Amino-ethoxy)-ethoxy]-acetyl)2-(γ-Glu)-CO-(CH2)18-CO2H)AQH-Aib-FIEYLIEGGPSSGAPPPS-NH2) [Example 144]
[reply] 0.851

[ask] Field entry: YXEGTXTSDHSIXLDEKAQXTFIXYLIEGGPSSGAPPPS (Y-Aib-EGT-αMeF(2F)-TSDHSI-αMeF-LDEK((2-[2-(2-Amino-ethoxy)-ethoxy]-acetyl)2-(γ-Glu)-CO-(CH2)16-CO2H)AQ-Aib-TFI-(D-Glu)-YLIEGGPSSGAPPPS-NH2) [Example 169]
[reply] 0.0136

[ask] Field entry: YXEGTXTSDXSIXLDEKAQXTFIXYLIEGGPSSGAPPPS (Y-Aib-EGT-αMeF(2F)-TSD-Aib-SI-αMeF-LDEK((2-[2-(2-Amino-ethoxy)-ethoxy]-acetyl)2-(γ-Glu)-CO-(CH2)18-CO2H)AQ-Aib-TFI-(D-Glu)-YLIEGGPSSGAPPPS-NH2) [Example 160]
[reply] 1.24

[ask] Field entry: Y[Aib]EGT[αMePhe(2-F)]TSDYSIXLDEK([AEEA-AEEA-γGlu-C18 diacid])AQ[Aib]EFI[dE]YLIEGGPSSG-NH2 (not fully specified (residue 13); printed as Y-Aib-EGT-αMeF(2F)-TSDYSI-αMeF-LDEK((2-[2-(2-Amino-ethoxy)-ethoxy]-acetyl)2-(γ-Glu)-CO-(CH2)16-CO2H)AQ-Aib-EFI-(D-Glu)-YLIEGGPSSG-NH2) [Example 219]
[reply] 1.03

[ask] Field entry: YXEGTXTSDLSIXLDEKAQXEFIXYLIEGGPSSGAPPPS (Y-Aib-EGT-αMeF(2F)-TSDLSI-αMeF-LDEK((2-[2-(2-Amino-ethoxy)-ethoxy]-acetyl)2-(γ-Glu)-CO-(CH2)18-CO2H)AQ-Aib-EFI-(D-Glu)-YLIEGGPSSGAPPPS-NH2) [Example 183]
[reply] 0.843

[ask] Field entry: YXEGTXTSDISILLDKKAQXAFIEYLIEGGPSSGAPPPS (Y-Aib-EGT-αMeF-TSDISILLDKK((2-[2-(2-Amino-ethoxy)-ethoxy]-acetyl)2-(γ-Glu)-CO-(CH2)18-CO2H)AQ-Aib-AFIEYLIEGGPSSGAPPPS-NH2) [Example 127]
[reply] 0.443

[ask] Field entry: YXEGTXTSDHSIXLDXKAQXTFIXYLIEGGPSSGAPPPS (Y-Aib-EGT-αMeF(2F)-TSDHSI-αMeF-LD-Dab-K((2-[2-(2-Amino-ethoxy)-ethoxy]-acetyl)2-(γ-Glu)-CO-(CH2)18-CO2H)AQ-Aib-TFI-(D-Glu)-YLIEGGPSSGAPPPS-NH2) [Example 172]
[reply] 0.038

[ask] Field entry: [Desaminohistidyl][αMeP]EGTFTSDYSILLDEK([AEEA-AEEA-γGlu-C20 diacid])AQQAFIEYLIEGGPSSGAPPPS-NH2 [Example 201]
[reply] 1.22
